Parameter: IC50. Scope: all listed entries.
System: K. pneumoniae (ATCC10031)
Assay: 50% growth inhibitory concentration (IC50) determination assay
Type: cell-based
Details: Klebsiella pneumoniae, Iso-Sensitest broth, 0.098 = detection limit
Procedure: Stock compounds in DMSO were serially two-fold diluted (range from 50 to 0.097 μM final concentration) in 384 wells microtiter plates and inoculated with 49 μL the bacterial suspension in Iso-Sensitest broth medium to have a final cell concentration of ˜5×10^5 CFU/mL in a final volume/well of 50 μL/well. Microtiter plates were incubated at 35±2° C. Bacterial cell growth was determined with the measurement of optical density at λ=600 nm each 20 minutes over a time course of 16 h. […]

# annotated cases, reported IC50 shown
{"columns": ["molecule", "IC50"],
 "data": [
  ["CNc1cc(F)c(F)c2c1[nH]c1ncc(-c3cnc4c(c3)c(=O)c(C(=O)O)cn4C)c(N3CCC(N(C)C)CC3)c12 [Example 1.182]", "< 0.098 µM"],
  ["CNc1cc(F)c(F)c2c1[nH]c1ncc(-c3cnc4c(c3)c(=O)c(C(=O)O)cn4C)c(N3CC[C@@H](CN4CCOCC4)C3)c12 [Example 1.174]", "0.224 µM"],
  ["CNc1cc(F)cc2c1[nH]c1ncc(-c3cnc4c(c3)c(=O)c(C(=O)O)cn4C)c(N3CCN(C)CC3)c12 [Example 1.184]", "< 0.098 µM"],
  ["CNc1cc(F)c(F)c2c1[nH]c1ncc(-c3cnc4c(c3)c(=O)c(C(=O)O)cn4C)c(N3CCC4(CCN4C)C3)c12 (stereo not drawn) [Example 1.237]", "< 0.098 µM"],
  ["CNc1cc(F)cc2c1[nH]c1ncc(-c3cnc4c(c3)c(=O)c(C(=O)O)cn4N3CCOCC3)c(N3CCOCC3)c12 [Example 1.71]", "< 0.098 µM"]
]}

Then there is this molecule:
Q. Entry CNc1cc(F)c(F)c2c1[nH]c1ncc(-c3cnc4c(c3)c(=O)c(C(=O)O)cn4C(C)CO)c(N3CC[C@H]4CN(C)CC43)c12 (stereo partly drawn) [Example 1.206] : reported IC50 = ?
A. < 0.098 µM

* * *

Test: Lyophilisation solubility assay (LYSA)
Assay type: physicochemical
Conditions: phosphate buffer, pH 6.5, aqueous buffer, thermodynamic from solid, 0.05 M phosphate buffer, HPLC-UV
readout.name: solubility thermodynamic (µg/mL)

{"columns": ["compound", "solubility thermodynamic / µg/mL"],
 "data": [
  ["CNc1cc(F)cc2c1[nH]c1ncc(-c3cnc4c(c3)c(=O)c(C(=O)O)cn4NC)c(N3CC[C@H]4CN(C)C[C@H]43)c12 [Example 3.05A]", 535]
]}

A = CNc1cc(F)c(F)c2c1[nH]c1ncc(-c3cnc4c(c3)c(=O)c(C(=O)O)cn4NC)c(N3CCC4(F)CN(C)CC34)c12 (stereo not drawn)
B = CNc1cc(F)c(F)c2c1[nH]c1ncc(-c3cnc4c(c3)c(=O)c(C(=O)O)cn4C)c(N3CCCC3CN(C)C)c12 (stereo not drawn)
Q. Quick check, higher solubility thermodynamic between A and B ? Return value: the label identifying the chosen record.
A. B
(B: 321 µg/mL, A: 58 µg/mL)

* * *

Parameter: MIC S9. Scope: all listed entries.
Tested on: multiple species and strains
Experiment: Minimal inhibitory concentration (MIC) and MIC90 determination, broth microdilution (CLSI M07-A10)
Details: S9: P. aeruginosa ATCC BAA-2113
Simply state the number, no unit and no words.

# annotated cases, reported MIC S9 shown
{"columns": ["molecule", "quantitative.result"],
 "data": [
  ["CNc1cc(F)cc2c1[nH]c1ncc(-c3cnc4c(c3)c(=O)c(C(=O)O)cn4NC)c(N3CC[C@H]4CN(C)C[C@H]43)c12 [Example 3.05A]", 6.957],
  ["CNc1cc(F)c(F)c2c1[nH]c1ncc(-c3cnc4c(c3)c(=O)c(C(=O)O)cn4C)c(N3CCC[C@H]3CN(C)C)c12", 7.02],
  ["CNc1cc(F)c(F)c2c1[nH]c1ncc(-c3cnc4c(c3)c(=O)c(C(=O)O)cn4C)c(N3CC4C(N(C)C)CO[C@@H]4C3)c12 (stereo partly shown)", 3.973]
]}

Then there is this molecule:
Q. # get_value(readout= MIC S9, system= multiple species and strains) for CNc1cc(F)c(F)c2c1[nH]c1ncc(-c3cnc4c(c3)c(=O)c(C(=O)O)cn4C)c(N3CC[C@H]4CN(C)CC43)c12 (stereo partly shown)
A. 6.995

* * *

Assay: Lyophilisation solubility assay (LYSA)
Assay type: physicochemical
Conditions: phosphate buffer, pH 6.5, aqueous buffer, thermodynamic from solid, 0.05 M phosphate buffer, HPLC-UV
readout.name: solubility thermodynamic (µg/mL)

# annotated cases, reported solubility thermodynamic shown
{"columns": ["compound", "solubility thermodynamic [µg/mL]"],
 "data": [
  ["CNc1cc(F)cc2c1[nH]c1ncc(-c3cnc4c(c3)c(=O)c(C(=O)O)cn4C)c(N3CC[C@H]4CCN(C)[C@H]4C3)c12 [Example 3.18A]", 172],
  ["CNc1cc(F)cc2c1[nH]c1ncc(-c3cnc4c(c3)c(=O)c(C(=O)O)cn4N)c(N3CC[C@H]4CN(C)CC43)c12 (some centres unmarked) [Example 5.05]", 250],
  ["CCNn1cc(C(=O)O)c(=O)c2cc(-c3cnc4[nH]c5c(NC)cc(F)cc5c4c3N3CC[C@H]4CN(C)CC43)cnc21 (some centres unmarked) [Example 1.290]", 247],
  ["CNc1cc(F)cc2c1[nH]c1ncc(-c3cnc4c(c3)c(=O)c(C(=O)O)cn4C)c(N3CC[C@H]4CN(C)C[C@H]43)c12 [Example 3.04A]", 485]
]}

I = CNc1cc(F)c(F)c2c1[nH]c1ncc(-c3cnc4c(c3)c(=O)c(C(=O)O)cn4C)c(N3CCC(C)(CN(C)C)C3)c12 (centres unmarked) [Example 1.101]
II = CNc1cc(F)cc2c1[nH]c1ncc(-c3cnc4c(c3)c(=O)c(C(=O)O)cn4C)c(N3CC4[C@H](CCN4C)C3)c12 (some centres unmarked) [Example 1.209]
III = CNc1cc(F)c(F)c2c1[nH]c1ncc(-c3cnc4c(c3)c(=O)c(C(=O)O)cn4C)c(N3CC[C@H]4CN(C)C4C3)c12 (some centres unmarked) [Example 1.213]
IV = CNc1cc(F)c(F)c2c1[nH]c1ncc(-c3cnc4c(c3)c(=O)c(C(=O)O)cn4C)c(N3CCN4CCOCC4C3)c12 (centres unmarked) [Example 1.134]
Q. Order the items by recorded solubility thermodynamic; the first position goes to the largest value. Returns: the labels arranged in the requested order.
A. I, II, III, IV
(I: 214 µg/mL, II: 63 µg/mL, III: 26 µg/mL, IV: 11 µg/mL)

* * *

Test: Cytotoxicity assay (HepG2, CellTiter-Blue cell viability)
Type: cell-based
Conditions: human; HepG2 cells, 3 days treatment; "*": the detection limit; read-out: CC50
readout.name: CC50 at 3 days

# annotated cases, reported CC50 at 3 days shown
{"columns": ["compound", "readout.name", "result"],
 "data": [
  ["CNc1cc(F)cc2c1[nH]c1ncc(-c3cnc4c(c3)c(=O)c(C(=O)O)cn4[C@@H](C)CO)c(N3CCOCC3)c12 [Example 1.216]", "CC50 at 3 days", "> 100 µM"],
  ["CCNc1cc(F)c(F)c2c1[nH]c1ncc(-c3cnc4c(c3)c(=O)c(C(=O)O)cn4C3CCNC3)c(N(C)C)c12 (stereo not shown) [Example 1.140]", "CC50 at 3 days", "> 100 µM"],
  ["CNc1cc(F)cc2c1[nH]c1ncc(-c3cnc4c(c3)c(=O)c(C(=O)O)cn4C(C)(CO)CO)c(N3CCOCC3)c12 [Example 1.44]", "CC50 at 3 days", "> 100 µM"]
]}

Q. Entry CNc1cc(F)c(F)c2c1[nH]c1ncc(-c3cnc4c(c3)c(=O)c(C(=O)O)cn4C)c(N3CC[C@@H](CO)C3)c12 [Example 1.165] : reported CC50 at 3 days = ?
A. > 100 µM

Q. Entry CNc1cc(F)c(F)c2c1[nH]c1ncc(-c3cnc4c(c3)c(=O)c(C(=O)O)cn4CC(C)(C)N)c(N3CCOCC3)c12 [Example 1.38] : reported CC50 at 3 days = ?
A. > 100 µM

Q. Entry CNc1cc(F)c(F)c2c1[nH]c1ncc(-c3cnc4c(c3)c(=O)c(C(=O)O)cn4NC)c(N3CC4[C@H](CCN4C)C3)c12 (stereo partly shown) [Example 1.193] : reported CC50 at 3 days = ?
A. > 100 µM

Q. Entry CNc1cc(F)c(F)c2c1[nH]c1ncc(-c3cnc4c(c3)c(=O)c(C(=O)O)cn4C)c(N3CCC(F)(CN)C3)c12 (stereo not shown) [Example 1.23] : reported CC50 at 3 days = ?
A. > 100 µM

The measured values listed here are drawn from patent US10662203B2.
